Entry source: patent US20260207578A1

System: MV-4-11
Test: Half inhibitory concentration (IC50) against tumor cells, Cell Counting Kit-8
Assay type: cell-based
Conditions: Homo sapiens, MV4-11, CCK-8, 96 h treatment, read-out: inhibitory activity (IC50, nM) against tumor cells proliferation
property name: IC50

// solved cases for IC50 follow
[[record]]
compound = "CC1(C)CCC(C(=O)N2CCC3(CC2)CC(Sc2ccc4c(c2)CN(C2CCC(=O)NC2=O)C4=O)C3)=C(c2ccc(Cl)cc2)C1 (centres unmarked)"
property_name = "IC50"
recorded_result = "100 to 500 nM"

[[record]]
compound = "O=C1CCC(N2Cc3cc(OC4CC5(CCN(C(c6ccccc6)c6ccccc6)CC5)C4)ccc3C2=O)C(=O)N1 (centres unmarked)"
property_name = "IC50"
recorded_result = "500 to 1000 nM"

[[record]]
compound = "CC1(C)CCC(CN2CCC(Oc3ccc4c(c3)CN(C3CCC(=O)NC3=O)C4=O)C2)=C(c2ccc(Cl)cc2)C1 (centres unmarked)"
property_name = "IC50"
recorded_result = "500 to 1000 nM"

[[record]]
compound = "O=C1CCC(N2Cc3cc(OC4CCCN(C(c5ccccc5)c5ccccc5)CC4)ccc3C2=O)C(=O)N1 (centres unmarked)"
property_name = "IC50"
recorded_result = "10 to 50 nM"

[[record]]
compound = "O=C1CCC(N2Cc3cc(OC4CCCN(Cc5ccccc5-c5ccc(Cl)cc5)CC4)ccc3C2=O)C(=O)N1 (centres unmarked)"
property_name = "IC50"
recorded_result = "100 to 500 nM"


Consider the compound CC1(C)CCC(CN2CCC(Sc3ccc4c(c3)CN(C3CCC(=O)NC3=O)C4=O)C(F)(F)C2)=C(c2ccc(Cl)cc2)C1 (centres unmarked) and give its measured IC50. 500 to 1000 nM

Consider the compound O=C1CCC(N2Cc3cc(OC4CCCN(C(=O)c5ccccc5-c5ccc(Cl)cc5)CC4)ccc3C2=O)C(=O)N1 (centres unmarked) and give its measured IC50. 100 to 500 nM

Consider the compound O=C1CCC(N2Cc3cc(SC4CN(Cc5ccccc5-c5ccc(Cl)cc5)C4)ccc3C2=O)C(=O)N1 (centres unmarked) and give its measured IC50. 100 to 500 nM
